Recorded values, source ChEMBL document CHEMBL4627402.

- TGT: Lysine-specific histone demethylase 1A (Homo sapiens, UniProt O60341)
Hi there, I'd appreciate the recorded EC50 for every entry that follows.
Answer with the value and then the unit.

// EC50 lookup, compound = `CC/C(=C\c1ccccc1)[C@@H]1C[C@H]1NC1CC2(C1)CN(CC(F)F)C2` , result: 7 nM

// EC50 lookup, compound = O=C(O)c1ccc(CN2CCC(CN[C@@H]3C[C@H]3c3ccccc3)CC2)cc1 [GSK2879552] , result: 54 nM

// EC50 lookup, compound = CC/C(=C\c1ccccc1)[C@@H]1C[C@H]1N[C@H]1CC[C@H](NCCO)CC1 (racemic) , result: 6 nM

// EC50 lookup, compound = `CC/C(=C\c1ccccc1)[C@@H]1C[C@H]1NC1CCN(CCO)CC1` , result: 4 nM

// EC50 lookup, compound = `CC/C(=C\c1ccccc1)[C@@H]1C[C@H]1NC1CC2(CCN(CCO)CC2)C1` , result: 5 nM

// EC50 lookup, compound = `CC/C(=C\c1ccccc1)[C@@H]1C[C@H]1NC1CC2(C1)CN(CCO)C2` , result: 2 nM
